Target: T1, cMetECDHis (human, UniProt P08581 25-932, limits assumed, biotinylated in the cross-block ELISA of Example 17)
T1 construct: Expressed in HEK-293F cells; also called soluble cMetECDHis; biotinylated cMetECDHis
Experiment: cross-block ELISA; competitor 5D5
Please go through the items and note down their residual binding, % of no competitor.
Numbers only, in %.

IgG1-1016-022 (antibody, V domains shown, also called TH1016-022; PC1016-022) VH: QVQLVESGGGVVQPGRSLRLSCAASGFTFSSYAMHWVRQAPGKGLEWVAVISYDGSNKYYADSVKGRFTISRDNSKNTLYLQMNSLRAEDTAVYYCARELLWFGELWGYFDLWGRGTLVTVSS VL: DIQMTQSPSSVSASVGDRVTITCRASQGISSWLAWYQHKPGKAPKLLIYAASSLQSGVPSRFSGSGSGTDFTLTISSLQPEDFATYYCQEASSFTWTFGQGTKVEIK; 4.2

Please state, for each entry, its recorded residual binding, % of no competitor.
1. anti-c-Met HuMab 006 (IgG1) (antibody, V domains shown, also called TH1016-006; PC1016-006) VH: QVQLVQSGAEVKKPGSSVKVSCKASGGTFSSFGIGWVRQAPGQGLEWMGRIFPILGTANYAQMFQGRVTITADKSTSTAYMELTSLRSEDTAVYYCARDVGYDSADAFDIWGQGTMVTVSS VL: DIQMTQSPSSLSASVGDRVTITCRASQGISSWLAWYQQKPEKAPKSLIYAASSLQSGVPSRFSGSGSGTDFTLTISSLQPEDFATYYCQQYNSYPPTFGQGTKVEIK
2. anti-c-Met HuMab 181 (IgG1) (antibody, V domains shown, also called TH1016-181; PC1016-181) VH: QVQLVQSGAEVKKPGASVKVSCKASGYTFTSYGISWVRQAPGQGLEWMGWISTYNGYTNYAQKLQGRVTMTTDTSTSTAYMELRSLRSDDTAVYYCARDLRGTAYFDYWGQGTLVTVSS VL: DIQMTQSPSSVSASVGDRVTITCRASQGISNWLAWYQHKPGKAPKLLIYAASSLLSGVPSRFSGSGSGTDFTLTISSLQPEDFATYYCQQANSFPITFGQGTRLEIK
3. anti-c-Met HuMab 035 (IgG1) (antibody, V domains shown, also called P1016-035; TH1016-035-D09) VH: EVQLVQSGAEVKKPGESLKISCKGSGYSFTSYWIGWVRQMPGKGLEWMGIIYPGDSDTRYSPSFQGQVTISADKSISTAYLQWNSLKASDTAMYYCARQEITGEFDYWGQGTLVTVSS VL: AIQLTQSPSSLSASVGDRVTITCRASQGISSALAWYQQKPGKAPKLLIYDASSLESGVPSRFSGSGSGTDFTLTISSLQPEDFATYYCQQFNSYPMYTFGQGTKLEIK
4. IgG1-1016-058 (antibody, V domains shown, also called IgG1-058; TH1016-058) VH: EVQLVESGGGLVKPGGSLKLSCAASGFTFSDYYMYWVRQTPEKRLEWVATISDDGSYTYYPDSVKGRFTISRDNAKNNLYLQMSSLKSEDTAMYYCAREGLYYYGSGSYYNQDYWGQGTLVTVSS VL: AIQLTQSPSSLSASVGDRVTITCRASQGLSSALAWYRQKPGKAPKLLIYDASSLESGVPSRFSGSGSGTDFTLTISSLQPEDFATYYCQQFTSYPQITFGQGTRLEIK
5. IgG1-1016-069 (antibody, V domains shown, also called clone 069; TH1016-069) VH: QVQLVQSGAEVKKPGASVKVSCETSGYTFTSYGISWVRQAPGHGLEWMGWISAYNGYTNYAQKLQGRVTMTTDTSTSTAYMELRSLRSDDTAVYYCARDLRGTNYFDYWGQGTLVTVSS VL: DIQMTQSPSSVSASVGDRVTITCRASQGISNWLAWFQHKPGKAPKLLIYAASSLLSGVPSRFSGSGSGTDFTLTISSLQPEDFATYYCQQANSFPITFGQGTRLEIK

1: 3.1; 2: 94.2; 3: 25.5; 4: 2.8; 5: 99.4
